Each record here notes measured viability decrease.
experiment: growth inhibition of GSK3B-pretreated HCT116 cells – cell-based, CellTiter-Glo, 0.2 to 20 µM (AID 1117336); settings: HCT116 viability after GSK3B inhibitor, at 20 µM, hits give high values
Calls of active or inactive are those of the source.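 Rule for the calls: active = compounds lowering colon cancer cell viability after pretreatment blocking the GSK3B kinase; inactive = the rest.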
Assay endpoint: viability decrease

Molecule	Assay endpoint	Reading
c1ccc2c(c1)CCCC2C1=NCCN1 (stereo unspecified)	viability decrease	-30.2% (inactive)
CN=C(NC#N)NCCSCc1nc[nH]c1C	viability decrease	10.8% (inactive)
CCc1nnc(NS(=O)(=O)c2ccc(N)cc2)s1	viability decrease	5.1% (inactive)
CCCCCCCCCCOCC(O)CN (stereo unspecified)	viability decrease	91.1% (active)
Cc1ccc2ccc(Cl)cc2n1	viability decrease	-1.7% (inactive)
CC(=O)O[C@H]1C[C@@H]2CC[C@H]3[C@H]4C[C@H]([N+]5(C)CCCCC5)[C@@H](OC(C)=O)[C@@]4(C)CC[C@@H]3[C@@]2(C)C[C@H]1[N+]1(C)CCCCC1	viability decrease	-2.7% (inactive)
Nc1nc(-c2ccccc2)c(Br)c(=O)[nH]1	viability decrease	-50.3% (inactive)
CCCCCCCCCCCCCCNCCO	viability decrease	62.8% (active)
O=C(Nc1ccc([N+](=O)[O-])cc1)Nc1ccc([N+](=O)[O-])cc1	viability decrease	-7.9% (inactive)
CC(C)(C)CC(=O)OCC(=O)[C@@]1(O)CC[C@H]2[C@@H]3CCC4=CC(=O)C=C[C@]4(C)[C@H]3[C@@H](O)C[C@@]21C	viability decrease	-93.8% (inactive)
CCN(CC)CCOc1ccccc1C(=O)CCc1ccccc1	viability decrease	14.5% (inactive)
NNC(=O)c1ccncc1	viability decrease	-2.7% (inactive)
CC1(C)O[C@@H]2C[C@H]3[C@@H]4CCC5=CC(=O)C=C[C@]5(C)[C@@H]4[C@@H](O)C[C@]3(C)[C@]2(C(=O)CO)O1	viability decrease	-46.1% (inactive)
CC(=O)O[C@H]1CC[C@@]2(C)C(=CC[C@@H]3[C@@H]2CC[C@]2(C)C(C(C)=O)=CC[C@@H]32)C1	viability decrease	48% (inactive)
CN1C(CSCC(F)(F)F)Nc2cc(Cl)c(S(N)(=O)=O)cc2S1(=O)=O (stereo unspecified)	viability decrease	-2.8% (inactive)
CCC(=O)Nc1ccc(O)cc1	viability decrease	-1% (inactive)
NC(=O)c1cnccn1	viability decrease	0.65% (inactive)
O=C(/C=C/c1ccccc1)NCCO	viability decrease	-9.8% (inactive)
COc1ccccc1N1CCN(CC(O)COc2cc(OC)c(OC)c(OC)c2)CC1 (stereo unspecified)	viability decrease	16.1% (inactive)
CN(C)C(=S)SC(=S)N(C)C	viability decrease	-6.55% (inactive)
O=C(C1CCCCC1)N1CC(=O)N2CCc3ccccc3C2C1 (stereo unspecified)	viability decrease	-3.8% (inactive)
CCOC(=O)C(C#N)=C(c1ccccc1)c1ccccc1	viability decrease	-0.55% (inactive)
CCCN(CCC)C(=O)C(CCC(=O)OCCCN1CCN(CCOC(=O)Cc2c(C)n(C(=O)c3ccc(Cl)cc3)c3ccc(OC)cc23)CC1)NC(=O)c1ccccc1 (stereo unspecified)	viability decrease	113% (active)
O=C(O)/C=C\C(=O)O	viability decrease	-27.8% (inactive)
O=Cc1ccccc1C=O	viability decrease	1.65% (inactive)
CC(=O)Nc1nnc(S(N)(=O)=O)s1	viability decrease	-1.8% (inactive)
CCCCCCCC/C=C\CCCCCCCCN	viability decrease	18.7% (inactive)
CN(C)CCOC(C)(c1ccccc1)c1ccccn1 (stereo unspecified)	viability decrease	7.4% (inactive)
Cc1ccc2c(Br)cc(Br)c(O)c2n1	viability decrease	91% (active)
OC1(c2ccc(Cl)cc2)CCNCC1	viability decrease	13.1% (inactive)
CC(C)CCOC(=O)c1ccc(N(C)C)cc1	viability decrease	-16.7% (inactive)
CNC(=O)Oc1ccc2c(c1)[C@]1(C)CCN(C)[C@@H]1N2C	viability decrease	5% (inactive)
O=C(CN1CCNCC1)NC1CCCCC1	viability decrease	-3.9% (inactive)
C=C(C)C(=O)OCC(O)CO (stereo unspecified)	viability decrease	3% (inactive)
CC(C)(Oc1ccc(Cl)cc1)C(=O)OCCCOC(=O)C(C)(C)Oc1ccc(Cl)cc1	viability decrease	11% (inactive)
Cc1cc(CC(=O)O)c(C)n1-c1ccc(Cl)cc1	viability decrease	-14.4% (inactive)
O=C(NCCc1c[nH]c2ccccc12)c1cccnc1	viability decrease	6.55% (inactive)
O=Cc1ccc(O)c(O)c1O	viability decrease	87.5% (active)
CN[C@H](CC(C)C)C(=O)N[C@H]1C(=O)N[C@@H](CC(N)=O)C(=O)N[C@H]2C(=O)N[C@H]3C(=O)N[C@H](C(=O)N[C@H](C(=O)O)c4cc(O)cc(O)c4-c4cc3ccc4O)[C@H](O)c3ccc(c(Cl)c3)Oc3cc2cc(c3O[C@@H]2OC(CO)[C@@H](O)[C@H](O)[C@@H]2O[C@H]2C[C@](C)(N)[C@H](O)[C@H](C)O2)Oc2ccc(cc2Cl)[C@H]1O (stereo partly specified)	viability decrease	-6.3% (inactive)
NNC(=O)CP(=O)(c1ccccc1)c1ccccc1	viability decrease	-2.45% (inactive)
CCC(=C(CC)c1ccc(OP(=O)(O)O)cc1)c1ccc(OP(=O)(O)O)cc1	viability decrease	-26.4% (inactive)
CN(C)CCN(Cc1ccsc1)c1ccccn1	viability decrease	4.6% (inactive)
O=C(CCCCCCCCC#CI)Oc1ccccc1	viability decrease	56% (active)
CCOC(=O)[C@@H](N)CS	viability decrease	-17.1% (inactive)
CCCCNC(=O)NS(=O)(=O)c1ccc(C)cc1	viability decrease	-5.6% (inactive)
CCN(CC)CCOc1ccc(C(O)(Cc2ccc(Cl)cc2)c2ccc(C)cc2)cc1 (stereo unspecified)	viability decrease	101% (active)
